Experiment: Viability qHTS for inhibitors of the SERCaMP assay screened against the NCATS CANVASS Library (AID 1347400); also: nearly all actives have a fitted effect of over 70% in size
Conditions: SH-SY5Y SERCaMP cells viability, CellTiter-Glo, 48 h; series mostly up to 92.2 µM
Records with an inconclusive call do not appear. Activity calls are given as the source filed them. Calls follow the shape of the dose curve; as a rule, active = well fitted cell-killing curve with a large enough effect; inconclusive = small, poorly fitted or top-dose-only effect; inactive = flat fitted curve, though single readings scatter.
Outcomes: 1 (yes) (active), 0 (no) (inactive)

{"compound": "C[C@@]1(CCC(=O)Nc2c(O)ccc(C(=O)O)c2O)C(=O)C=C[C@]23C[C@H]4C[C@H](O[C@@]4(C)C2)C31 (stereo not given in full)", "classification": "0 (no)"}
{"compound": "COc1ccc([C@@H]2c3cc4c(cc3C(=O)C(C)C2C)OCO4)cc1OC (stereo not given in full)", "classification": "0 (no)"}
{"compound": "COC(=O)C1=C[C@]23C[C@@H](C)CC[C@@H]2[C@@]2(C)CC[C@@H](C(C)C)[C@@](O)(O3)[C@@H]12", "classification": "0 (no)"}
{"compound": "O=C(OC[C@H]1O[C@@H](OC(=O)c2cc(O)c(O)c(O)c2)[C@H](OC(=O)c2cc(O)c(O)c(O)c2)[C@@H](OC(=O)c2cc(O)c(O)c(O)c2)[C@@H]1OC(=O)c1cc(O)c(O)c(O)c1)c1cc(O)c(O)c(O)c1", "classification": "1 (yes)"}
{"compound": "CCC(=O)N[C@@H](C[C@H](C)C(Cl)(Cl)Cl)C(=O)N1C(=O)C=C(OC)[C@@H]1C[C@H](C)CCl", "classification": "0 (no)"}
{"compound": "C=C[C@]1(C)CC[C@@H]([C@H](C)C(=O)CC=C(C)C)O1", "classification": "0 (no)"}
{"compound": "CC(C)=CCCC(C)(O)[C@H]1CC=C(C)C(O)C1 (stereo not given in full)", "classification": "0 (no)"}
{"compound": "C=C1CC[C@@H](O[C@H]2C[C@@](O)([C@H](C)NC(=O)c3[nH]c(C)c(Cl)c3Cl)[C@H](O)[C@@H](C)O2)[C@@H]2C=C[C@H](C)C(/C(O)=C3/C(=O)[C@H](C(C)C)N([C@@H]4O[C@H](C)[C@H](OC(N)=O)[C@H](OC(C)=O)[C@@H]4OC)C3=O)[C@@H]12 (stereo not given in full)", "classification": "0 (no)"}
{"compound": "CC[C@@H]1C[C@@]2(CC)OC(=O)[C@@]3(CC)[C@H](CC)[C@@H]1[C@@H]23", "classification": "1 (yes)"}
{"compound": "O=Cc1ccc2n1C[C@]1(OC2)O[C@H](CO)[C@@H](O)[C@@H]1O", "classification": "0 (no)"}
{"compound": "COC(=O)[C@]1([C@H]2CCC(=O)O2)CC(=O)c2c(O)cc(C)cc2O1", "classification": "0 (no)"}
{"compound": "CN1CC[C@@]23c4ccccc4N[C@@H]1[C@@]21CCN(C)[C@@H]3Nc2ccccc21", "classification": "0 (no)"}
{"compound": "C/C=C/[C@H]1[C@H]2C(=O)c3c(O)c(C)c(O)c(C)c3[C@]1(C(=O)O)C(=O)C=C2C", "classification": "0 (no)"}
{"compound": "C=CC(CCCCC)C1C(=O)NC(=O)C1C(=O)C1C2C(C)CC(C(=O)O)CC2CC1(O)C(=O)/C=C/C (stereo not given)", "classification": "0 (no)"}
{"compound": "CC(CCC[C@]1(C)C(=O)C=C[C@@]23C[C@]4(C)O[C@@H](C[C@@H]4[C@H]2O)C31)C(=O)O (stereo not given in full)", "classification": "0 (no)"}

====

Target: Muscarinic acetylcholine receptor M1 (Rattus norvegicus)
Assay: qHTS Assay for Antagonists of Acetylcholine Muscarinic M1 Receptor: Kinetic Measurement of Intracellular Calcium Response (AID 943); also: nearly all actives have a fitted effect of over 75% in size; also: potency is read from the fitted curve at half-maximal effect
Conditions: M1-expressing cells, kinetic intracellular calcium fluorescence; series mostly up to 35.3 µM
Inconclusive results are not listed. Activity calls are given as the source filed them. Calls follow the shape of the dose curve; as a rule, active = well fitted inhibition curve with a large enough effect; inconclusive = small, poorly fitted or top-dose-only effect; inactive = no such curve, though single readings can be large or run the other way.

{"smiles-string": "N=C(N)SCCc1cccc(CCSC(=N)N)c1", "Potency": "4.47 µM (active)"}
{"smiles-string": "NCCCCNS(=O)(=O)c1cccc2c(Cl)cccc12", "Potency": "14.1 µM (active)"}
{"smiles-string": "CCCC(=O)NCCc1c2n(c3ccc(OC)cc13)Cc1ccccc1-2", "Potency": "inactive"}
{"smiles-string": "CC(=O)NCCc1ccc(O)c(O)c1", "Potency": "inactive"}
{"smiles-string": "COc1ccc2c(c1)c(CC(=O)O)c(C)n2Cc1ccc(F)cc1", "Potency": "inactive"}
{"smiles-string": "COC(=O)c1c(-c2cc(OC)c(OC)c(OC)c2)c2ccc(OCc3ccccn3)cc2c(=O)n1-c1ccc(N)cc1", "Potency": "inactive"}

====

Biological target: Cytochrome P450 3A4 (Homo sapiens) (UniProt P08684)
Sequence (P08684 whole entry, looked up): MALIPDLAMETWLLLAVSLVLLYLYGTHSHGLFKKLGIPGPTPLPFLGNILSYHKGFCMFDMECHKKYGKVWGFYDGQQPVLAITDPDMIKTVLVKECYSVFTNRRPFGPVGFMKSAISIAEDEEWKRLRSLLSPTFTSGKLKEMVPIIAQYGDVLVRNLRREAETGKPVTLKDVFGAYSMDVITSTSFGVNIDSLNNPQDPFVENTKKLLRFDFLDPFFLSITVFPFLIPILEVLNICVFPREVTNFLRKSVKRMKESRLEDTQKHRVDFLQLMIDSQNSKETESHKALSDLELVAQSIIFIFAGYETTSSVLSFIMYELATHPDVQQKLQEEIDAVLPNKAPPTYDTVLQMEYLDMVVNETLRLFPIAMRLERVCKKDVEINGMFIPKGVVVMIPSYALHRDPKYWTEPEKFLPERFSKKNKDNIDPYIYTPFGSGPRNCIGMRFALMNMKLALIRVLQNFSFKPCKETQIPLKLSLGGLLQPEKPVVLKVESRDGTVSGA
Assay: qHTS Assay for Inhibitors and Substrates of Cytochrome P450 3A4 (AID 884); also: nearly all actives have a fitted effect of over 50% in size
Details: recombinant CYP3A4, Luciferin-PPXE luminescence; series mostly up to 57.1 µM
Results filed as inconclusive are left out. Activity calls are given as the source filed them. Calls follow the shape of the dose curve; as a rule, active = well fitted inhibition curve with a large enough effect; inconclusive = small, poorly fitted or top-dose-only effect; inactive = no such curve, though single readings can be large or run the other way.
Outcomes: active, inactive

{"compound": "CCCn1c(C)nc2c(NCCCCN3CCCC3)nc(C)nc21", "system": "Cytochrome P450 3A4 (Homo sapiens) (UniProt P08684)", "classification": "inactive"}
{"compound": "CS(=O)(=O)Nc1cccc(-c2cncnc2NCc2cccs2)c1", "system": "Cytochrome P450 3A4 (Homo sapiens) (UniProt P08684)", "classification": "active"}
{"compound": "COC1=C(OC)C(=O)C(C/C=C(\\C)CC/C=C(\\C)CC/C=C(\\C)CC/C=C(/C)CC/C=C(\\C)CC/C=C(\\C)CC/C=C(\\C)CC/C=C(\\C)CC/C=C(\\C)CCC=C(C)C)=C(C)C1=O", "system": "Cytochrome P450 3A4 (Homo sapiens) (UniProt P08684)", "classification": "inactive"}
{"compound": "COc1ccc(CNc2ncnc3ccc(-c4ccccc4OC)cc23)c(OC)c1", "system": "Cytochrome P450 3A4 (Homo sapiens) (UniProt P08684)", "classification": "active"}
{"compound": "Cn1c(=O)c(-c2ccc(Cl)cc2)nc2cnc(Oc3cccc(Cl)c3)nc21", "system": "Cytochrome P450 3A4 (Homo sapiens) (UniProt P08684)", "classification": "inactive"}
{"compound": "COc1cccc(-c2ccc3ncnc(NCc4cccs4)c3c2)c1", "system": "Cytochrome P450 3A4 (Homo sapiens) (UniProt P08684)", "classification": "active"}
{"compound": "COC(=O)N1CCC[C@@]2(CCN(c3ccncc3)C2)C1", "system": "Cytochrome P450 3A4 (Homo sapiens) (UniProt P08684)", "classification": "active"}
{"compound": "CCNc1ncc2nc(-c3cn(C)c4ccccc34)c(=O)n(Cc3cccc(OC)c3)c2n1", "system": "Cytochrome P450 3A4 (Homo sapiens) (UniProt P08684)", "classification": "active"}
{"compound": "CCN1CCCC1Cn1c(-c2ccccc2)nc2c(NCCOC)nc(C)nc21 (centres undefined)", "system": "Cytochrome P450 3A4 (Homo sapiens) (UniProt P08684)", "classification": "active"}
{"compound": "Clc1ccccc1-c1cncnc1NCc1cccs1", "system": "Cytochrome P450 3A4 (Homo sapiens) (UniProt P08684)", "classification": "active"}
{"compound": "O=S(=O)(c1ccccc1)N1CCC[C@@]2(CCN(c3ccccc3)C2)C1", "system": "Cytochrome P450 3A4 (Homo sapiens) (UniProt P08684)", "classification": "active"}
{"compound": "COc1ccccc1CNc1ccnc(-c2ccoc2)n1", "system": "Cytochrome P450 3A4 (Homo sapiens) (UniProt P08684)", "classification": "active"}
{"compound": "c1ncc(-c2ccoc2)c(NC2CC2)n1", "system": "Cytochrome P450 3A4 (Homo sapiens) (UniProt P08684)", "classification": "active"}
{"compound": "CN(C)c1ccc(-c2cncnc2NCc2cccs2)cc1", "system": "Cytochrome P450 3A4 (Homo sapiens) (UniProt P08684)", "classification": "active"}
{"compound": "CCCn1c(-c2ccc(F)cc2)nc2c(NCCCN(C)C)nc(C)nc21", "system": "Cytochrome P450 3A4 (Homo sapiens) (UniProt P08684)", "classification": "inactive"}
{"compound": "Cc1nc(NCc2ccccc2)c2nc(-c3ccccc3)n(C3CCN(Cc4ccccc4)C3)c2n1 (centres undefined)", "system": "Cytochrome P450 3A4 (Homo sapiens) (UniProt P08684)", "classification": "active"}
{"compound": "Cc1nc(NCCO)c2nc(-c3ccccc3)n(CCCN(C)C)c2n1", "system": "Cytochrome P450 3A4 (Homo sapiens) (UniProt P08684)", "classification": "inactive"}
{"compound": "COC(=O)N1CCC2(CC1)CCN(c1ccccc1)CC2", "system": "Cytochrome P450 3A4 (Homo sapiens) (UniProt P08684)", "classification": "inactive"}
{"compound": "Cc1nc(Nc2ccccc2)c2nc(-c3ccccc3)n(CCN3CCOCC3)c2n1", "system": "Cytochrome P450 3A4 (Homo sapiens) (UniProt P08684)", "classification": "active"}
{"compound": "Cc1noc(C)c1-c1nccc(NCc2cccnc2)n1", "system": "Cytochrome P450 3A4 (Homo sapiens) (UniProt P08684)", "classification": "active"}
{"compound": "COc1ccccc1CCn1c(=O)c(-c2cccc(F)c2)nc2cncnc21", "system": "Cytochrome P450 3A4 (Homo sapiens) (UniProt P08684)", "classification": "active"}
{"compound": "O=C(c1ccncc1)N1CCC2(CC1)CN(c1cccc(-c3ccccc3)c1)C2", "system": "Cytochrome P450 3A4 (Homo sapiens) (UniProt P08684)", "classification": "active"}
{"compound": "CCCn1c(-c2ccc(F)cc2)nc2c(NC3CCN(Cc4ccccc4)CC3)nc(C)nc21", "system": "Cytochrome P450 3A4 (Homo sapiens) (UniProt P08684)", "classification": "inactive"}
{"compound": "COCCn1c(=O)c(-c2ccc(Cl)cc2)nc2cnc(OC)nc21", "system": "Cytochrome P450 3A4 (Homo sapiens) (UniProt P08684)", "classification": "active"}
{"compound": "c1cncc(-c2cncnc2-n2ccnc2)c1", "system": "Cytochrome P450 3A4 (Homo sapiens) (UniProt P08684)", "classification": "active"}
{"compound": "O=C(Oc1ccccc1)N1CCC2(CC1)CCN(c1ccccc1)CC2", "system": "Cytochrome P450 3A4 (Homo sapiens) (UniProt P08684)", "classification": "inactive"}
{"compound": "COc1cccc(-c2cncnc2Nc2ccc(F)cc2)c1", "system": "Cytochrome P450 3A4 (Homo sapiens) (UniProt P08684)", "classification": "active"}
{"compound": "CCCCNc1nc(C)nc2c1nc(-c1ccccc1)n2CC(C)(C)CN(C)C", "system": "Cytochrome P450 3A4 (Homo sapiens) (UniProt P08684)", "classification": "active"}
{"compound": "O=C(c1cc(C(F)(F)F)cc(C(F)(F)F)c1)N1CCC2(CCN(Cc3nccs3)CC2)CC1", "system": "Cytochrome P450 3A4 (Homo sapiens) (UniProt P08684)", "classification": "inactive"}
{"compound": "CCCn1c(C)nc2c(NCCCN(CC)CC)nc(C)nc21", "system": "Cytochrome P450 3A4 (Homo sapiens) (UniProt P08684)", "classification": "inactive"}
{"compound": "CCN(CC)CCCn1c(-c2ccccc2)nc2c(NCCOC)nc(C)nc21", "system": "Cytochrome P450 3A4 (Homo sapiens) (UniProt P08684)", "classification": "inactive"}
{"compound": "CN(C)c1ccc(-c2ccc3ncnc(N(C)C)c3c2)cc1", "system": "Cytochrome P450 3A4 (Homo sapiens) (UniProt P08684)", "classification": "active"}
{"compound": "Cc1ccccc1-c1cc(N(C)C)ncn1", "system": "Cytochrome P450 3A4 (Homo sapiens) (UniProt P08684)", "classification": "inactive"}
{"compound": "CCCn1c(C)nc2c(NCCCN(CCO)CCO)nc(C)nc21", "system": "Cytochrome P450 3A4 (Homo sapiens) (UniProt P08684)", "classification": "inactive"}
{"compound": "CCCn1c(C)nc2c(N3CCN(C)CC3)nc(C)nc21", "system": "Cytochrome P450 3A4 (Homo sapiens) (UniProt P08684)", "classification": "inactive"}
{"compound": "CCCn1c(C)nc2c(N(CCN(CC)CC)CCN(CC)CC)nc(C)nc21", "system": "Cytochrome P450 3A4 (Homo sapiens) (UniProt P08684)", "classification": "inactive"}
{"compound": "COCCN(CCOC)c1nc(C)nc2c1nc(-c1ccccc1)n2CCN1CCOCC1", "system": "Cytochrome P450 3A4 (Homo sapiens) (UniProt P08684)", "classification": "active"}
{"compound": "COc1ccc(C(=O)N2CCC3(CCCN(Cc4ccncc4)C3)CC2)cc1", "system": "Cytochrome P450 3A4 (Homo sapiens) (UniProt P08684)", "classification": "active"}
{"compound": "Cn1c(=O)c(-c2cc(F)cc(F)c2)nc2cnc(Oc3ccccc3)nc21", "system": "Cytochrome P450 3A4 (Homo sapiens) (UniProt P08684)", "classification": "inactive"}
{"compound": "CN1CCN(c2ncc3nc(-c4ccc(Cl)cc4)c(=O)n(Cc4cccs4)c3n2)CC1", "system": "Cytochrome P450 3A4 (Homo sapiens) (UniProt P08684)", "classification": "inactive"}
{"compound": "FC(F)(F)c1ccccc1-c1nc(NCc2cccs2)c2ccccc2n1", "system": "Cytochrome P450 3A4 (Homo sapiens) (UniProt P08684)", "classification": "active"}
{"compound": "CCCn1c(C)nc2c(NC3CCN(Cc4ccccc4)CC3)nc(C)nc21", "system": "Cytochrome P450 3A4 (Homo sapiens) (UniProt P08684)", "classification": "inactive"}
{"compound": "CN1CCN(c2ncc3nc(CCc4ccccc4)c(=O)n(Cc4ccc(F)cc4)c3n2)CC1", "system": "Cytochrome P450 3A4 (Homo sapiens) (UniProt P08684)", "classification": "active"}
{"compound": "CN(C)c1ccc(-c2cc(-n3ccnc3)ncn2)cc1", "system": "Cytochrome P450 3A4 (Homo sapiens) (UniProt P08684)", "classification": "active"}

Reference source for all entries: PubChem BioAssay (NCATS)
